What MIC was measured for each of the following?
Test system: S. aureus RN450
Experiment: In Vitro Anti-Bacterial Activity Assay (MIC), gram positive
Type: cell-based
Conditions: Staphylococcus aureus, RN450, 18 h, gram positive bacteria; read-out: Antibiotic Activity Gram + (MIC)

# MIC lookup, item CN(C)[C@@H]1C(O)=C(C(N)=O)C(=O)[C@@]2(O)C(O)=C3C(=O)c4c(O)c(CNc5ccccc5)cc(I)c4C[C@H]3C[C@@H]12
< 4 mg/L

Form field: reported MIC of CCN(CC)c1ccc(O)c2c1C[C@H]1C[C@H]3[C@H](N(C)C)C(O)=C(C(N)=O)C(=O)[C@@]3(O)C(O)=C1C2=O
< 4 mg/L

Please give the measured MIC for this compound: CC(=O)Nc1ccc(-c2ccc(O)c3c2C[C@H]2C[C@H]4[C@H](N(C)C)C(O)=C(C(N)=O)C(=O)[C@@]4(O)C(O)=C2C3=O)cn1
< 4 mg/L

====

System: E. coli mL308 225
Experiment: In Vitro Anti-Bacterial Activity Assay (MIC), gram negative
Type: cell-based
Conditions: Escherichia coli, ML308225, 18 h, gram negative bacteria; read-out: Antibiotic Activity Gram − (MIC)
assay.endpoint: MIC

Request the reported MIC associated with CONCc1cc(CNCC(C)(C)C)c(O)c2c1C[C@H]1C[C@H]3[C@H](N(C)C)C(O)=C(C(N)=O)C(=O)[C@@]3(O)C(O)=C1C2=O
> 4 µg/mL

For CN1C=CC(Nc2cc(C3=COCC3)c3c(c2O)C(=O)C2=C(O)[C@]4(O)C(=O)C(C(N)=O)=C(O)[C@@H](N(C)C)[C@@H]4C[C@@H]2C3)CC1 (stereo partly shown) , what is its reported MIC?
> 4 µg/mL

Look up MIC for this molecule: CN1CCN(Cc2ccc(-c3cc(N(C)C)c4c(c3O)C(=O)C3=C(O)[C@]5(O)C(=O)C(C(N)=O)=C(O)[C@@H](N(C)C)[C@@H]5C[C@@H]3C4)o2)CC1
> 4 µg/mL

Any idea what its MIC is? The molecule is CONCc1ccc(-c2cc(N(C)C)c3c(c2O)C(=O)C2=C(O)[C@]4(O)C(=O)C(C(N)=O)=C(O)[C@@H](N(C)C)[C@@H]4C[C@@H]2C3)[nH]1
< 4 µg/mL

Sample CN(C)c1cc2c(c3c1C[C@H]1C[C@H]4[C@H](N(C)C)C(O)=C(C(N)=O)C(=O)[C@@]4(O)C(O)=C1C3=O)OC(=O)N(CC(C)(C)C)C2 — what was its MIC?
> 4 µg/mL

Could you tell me which MIC is on file for CCc1cc(CN2CCC(F)(F)CC2)c(O)c2c1C[C@H]1C[C@H]3[C@H](N(C)C)C(O)=C(C(N)=O)C(=O)[C@@]3(O)C(O)=C1C2=O [drawing 3695] ?
< 4 µg/mL

Give its MIC value. Item: CC(=O)N(Cc1cc(N(C)C)c2c(c1O)C(=O)C1=C(O)[C@]3(O)C(=O)C(C(N)=O)=C(O)[C@@H](N(C)C)[C@@H]3C[C@@H]1C2)CC(C)(C)C
> 4 µg/mL

# get_value(readout='MIC', item= CCN(CC)Cc1cc(N(C)C)c2c(c1O)C(=O)C1=C(O)[C@]3(O)C(=O)C(C(N)=O)=C(O)[C@@H](N(C)C)[C@@H]3C[C@@H]1C2 )
> 4 µg/mL

Fill in the blank: the reported MIC of COC(=O)C1CCN(CC(=O)Nc2ccc(-c3ccc(O)c4c3C[C@H]3C[C@H]5[C@H](N(C)C)C(O)=C(C(N)=O)C(=O)[C@@]5(O)C(O)=C3C4=O)cc2)CC1 is ____.
> 4 µg/mL

Request the reported MIC associated with C[C@H]1c2c(CN)cc(C(C)(C)C)c(O)c2C(=O)C2=C(O)[C@]3(O)C(=O)C(C(N)=O)=C(O)[C@@H](N(C)C)[C@@H]3[C@@H](O)[C@@H]21
> 4 µg/mL

Requested field: MIC. Item: CN(C)c1ccc(O)c2c1C[C@H]1C[C@H]3[C@H](N(C)C)C(O)=C(C#N)C(=O)[C@@]3(O)C(O)=C1C2=O
> 4 µg/mL

Look at this molecule and give its reported MIC. CN(C)[C@@H]1C(O)=C(C(N)=O)C(=O)[C@@]2(O)C(O)=C3C(=O)c4c(ccc(N5CCCCC5)c4O)C[C@H]3C[C@@H]12
> 4 µg/mL

Which MIC is reported for this molecule? CN(C)CCNC(=O)c1cccc(-c2ccc(O)c3c2C[C@H]2C[C@H]4[C@H](N(C)C)C(O)=C(C(N)=O)C(=O)[C@@]4(O)C(O)=C2C3=O)c1
> 4 µg/mL

Fill in: MIC of CN(C)[C@@H]1C(O)=C(C(N)=O)C(=O)[C@@]2(O)C(O)=C3C(=O)c4c(O)ccc(CN5CCCC5)c4C[C@H]3C[C@@H]12 is ___
< 4 µg/mL

Please look up its MIC: CNCOc1ccc(-c2ccc(O)c3c2C[C@H]2C[C@H]4[C@H](N(C)C)C(O)=C(C(N)=O)C(=O)[C@@]4(O)C(O)=C2C3=O)cc1
< 4 µg/mL

Query (molecule): CN(C)[C@@H]1C(OCc2ccccc2)=C(C(N)=O)C(=O)[C@@]2(O)C(O)=C3C(=O)c4c(O)ccc(I)c4C[C@H]3C[C@@H]12 ; field requested: MIC
< 4 µg/mL

====

Test system: E. coli mL308 225
Test: In Vitro Anti-Bacterial Activity Assay (MIC), gram negative
Format: cell-based
Details: Escherichia coli, ML308225, 18 h, gram negative bacteria; read-out: Antibiotic Activity Gram − (MIC)
assay.endpoint: MIC

Query the reported MIC for E. coli mL308 225; item: CC(C)N1CCC(Nc2ccc3c(c2O)C(=O)C2=C(O)[C@]4(O)C(=O)C(C(N)=O)=C(O)[C@@H](N(C)C)[C@@H]4C[C@@H]2C3)CC1
> 4 µg/mL

Recorded MIC for CN(C)c1cc(CN2CCC3(CCCC3)CC2)c(O)c2c1C[C@H]1C[C@H]3[C@H](N(C)C)C(O)=C(C(N)=O)C(=O)[C@@]3(O)C(O)=C1C2=O with E. coli mL308 225, please?
< 4 µg/mL

Param readout = MIC; param system = E. coli mL308 225; param query = CN(C)c1cc(C(=O)N2CCOCC2)c(O)c2c1C[C@H]1C[C@H]3[C@H](N(C)C)C(O)=C(C(N)=O)C(=O)[C@@]3(O)C(O)=C1C2=O ; response: value
> 4 µg/mL

Which measured MIC belongs to COc1cccc(C/C=C\c2ccc(O)c3c2C[C@H]2C[C@H]4[C@H](N(C)C)C(O)=C(C(N)=O)C(=O)[C@@]4(O)C(O)=C2C3=O)c1O , tested on E. coli mL308 225?
< 4 µg/mL

Record CN(C)[C@@H]1C(O)=C(C(N)=O)C(=O)[C@@]2(O)C(O)=C3C(=O)c4c(O)ccc(-c5ccc(NC(=O)NCCCCl)cc5)c4C[C@H]3C[C@@H]12 : what is its MIC with E. coli mL308 225?
> 4 µg/mL

State its MIC on E. coli mL308 225: CN(C)[C@@H]1C(O)=C(C(N)=O)C(=O)[C@@]2(O)C(O)=C3C(=O)c4c(O)c(CNCC(C)(C)C)cc(-c5ccccn5)c4C[C@H]3C[C@@H]12
> 4 µg/mL

====

System: E. coli mL308 225
Assay: In Vitro Anti-Bacterial Activity Assay (MIC), gram negative
Type: cell-based
Settings: Escherichia coli, ML308225, 18 h, gram negative bacteria; read-out: Antibiotic Activity Gram − (MIC)
Consider the following molecules; for each one, report its MIC.

Item CC(=O)c1ccc(-c2ccc3c(c2O)C(=O)C2=C(O)[C@]4(O)C(=O)C(C(N)=O)=C(O)[C@@H](N(C)C)[C@@H]4[C@@H](O)[C@@H]2[C@H]3C)cc1 with E. coli mL308 225 - MIC?
< 4 µg/mL

Write down the reported MIC of CN(C)c1cc(N2CCOCC2)c(O)c2c1C[C@H]1C[C@H]3[C@H](N(C)C)C(O)=C(C(N)=O)C(=O)[C@@]3(O)C(O)=C1C2=O , test system: E. coli mL308 225.
> 4 µg/mL

// map COCc1cncc(-c2ccc(O)c3c2C[C@H]2C[C@H]4[C@H](N(C)C)C(O)=C(C(N)=O)C(=O)[C@@]4(O)C(O)=C2C3=O)c1 to recorded MIC (system: E. coli mL308 225)
< 4 µg/mL

Lab note: need MIC for CN(C)[C@@H]1C(O)=C(C(N)=O)C(=O)[C@@]2(O)C(O)=C3C(=O)c4c(O)ccc(CNCC(C)(C)C)c4C[C@H]3C[C@@H]12 on E. coli mL308 225, anyone have it?
< 4 µg/mL

Lab note: need MIC for CN(C)c1cc(CNCC2CCNCC2)c(O)c2c1C[C@H]1C[C@H]3[C@H](N(C)C)C(O)=C(C(N)=O)C(=O)[C@@]3(O)C(O)=C1C2=O on E. coli mL308 225, anyone have it?
> 4 µg/mL

Request: MIC, test system E. coli mL308 225, entry C[C@H]1c2ccc(CNCC(C)(C)C)c(O)c2C(=O)C2=C(O)[C@]3(O)C(=O)C(C(N)=O)=C(O)[C@@H](N(C)C)[C@@H]3[C@@H](O)[C@@H]21 [drawing 3661]
> 4 µg/mL

Checklist item: MIC tested on E. coli mL308 225, entry Cc1noc(C)c1S(=O)(=O)NCc1cc(N(C)C)c2c(c1O)C(=O)C1=C(O)[C@]3(O)C(=O)C(C(N)=O)=C(O)[C@@H](N(C)C)[C@@H]3C[C@@H]1C2 , value?
> 4 µg/mL

Notebook entry, E. coli mL308 225 assay: MIC of CSCc1cc(-c2ccccn2)c2c(c1O)C(=O)C1=C(O)[C@]3(O)C(=O)C(C(N)=O)=C(O)[C@@H](N(C)C)[C@@H]3C[C@@H]1C2 = ?
> 4 µg/mL
